# key: entry, value: IC50
Biological target: Histone deacetylase 3/Nuclear receptor corepressor 2 (HDAC3/NCoR2) (Homo sapiens, UniProt O15379)
Sequence (O15379 whole entry, the tested form may be a part): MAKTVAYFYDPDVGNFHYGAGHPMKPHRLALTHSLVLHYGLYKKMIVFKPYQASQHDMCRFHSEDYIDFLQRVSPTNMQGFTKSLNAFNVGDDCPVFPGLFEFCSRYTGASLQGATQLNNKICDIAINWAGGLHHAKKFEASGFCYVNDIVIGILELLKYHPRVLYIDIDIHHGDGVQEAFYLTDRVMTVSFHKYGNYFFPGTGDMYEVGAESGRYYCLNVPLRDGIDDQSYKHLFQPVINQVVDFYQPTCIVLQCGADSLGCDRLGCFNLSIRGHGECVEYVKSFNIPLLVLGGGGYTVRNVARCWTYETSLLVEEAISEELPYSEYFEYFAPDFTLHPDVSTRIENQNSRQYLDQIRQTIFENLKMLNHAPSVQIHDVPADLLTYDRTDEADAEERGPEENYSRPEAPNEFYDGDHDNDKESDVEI
Sequence (Q9Y618 whole entry, further chain, the tested form may be a part): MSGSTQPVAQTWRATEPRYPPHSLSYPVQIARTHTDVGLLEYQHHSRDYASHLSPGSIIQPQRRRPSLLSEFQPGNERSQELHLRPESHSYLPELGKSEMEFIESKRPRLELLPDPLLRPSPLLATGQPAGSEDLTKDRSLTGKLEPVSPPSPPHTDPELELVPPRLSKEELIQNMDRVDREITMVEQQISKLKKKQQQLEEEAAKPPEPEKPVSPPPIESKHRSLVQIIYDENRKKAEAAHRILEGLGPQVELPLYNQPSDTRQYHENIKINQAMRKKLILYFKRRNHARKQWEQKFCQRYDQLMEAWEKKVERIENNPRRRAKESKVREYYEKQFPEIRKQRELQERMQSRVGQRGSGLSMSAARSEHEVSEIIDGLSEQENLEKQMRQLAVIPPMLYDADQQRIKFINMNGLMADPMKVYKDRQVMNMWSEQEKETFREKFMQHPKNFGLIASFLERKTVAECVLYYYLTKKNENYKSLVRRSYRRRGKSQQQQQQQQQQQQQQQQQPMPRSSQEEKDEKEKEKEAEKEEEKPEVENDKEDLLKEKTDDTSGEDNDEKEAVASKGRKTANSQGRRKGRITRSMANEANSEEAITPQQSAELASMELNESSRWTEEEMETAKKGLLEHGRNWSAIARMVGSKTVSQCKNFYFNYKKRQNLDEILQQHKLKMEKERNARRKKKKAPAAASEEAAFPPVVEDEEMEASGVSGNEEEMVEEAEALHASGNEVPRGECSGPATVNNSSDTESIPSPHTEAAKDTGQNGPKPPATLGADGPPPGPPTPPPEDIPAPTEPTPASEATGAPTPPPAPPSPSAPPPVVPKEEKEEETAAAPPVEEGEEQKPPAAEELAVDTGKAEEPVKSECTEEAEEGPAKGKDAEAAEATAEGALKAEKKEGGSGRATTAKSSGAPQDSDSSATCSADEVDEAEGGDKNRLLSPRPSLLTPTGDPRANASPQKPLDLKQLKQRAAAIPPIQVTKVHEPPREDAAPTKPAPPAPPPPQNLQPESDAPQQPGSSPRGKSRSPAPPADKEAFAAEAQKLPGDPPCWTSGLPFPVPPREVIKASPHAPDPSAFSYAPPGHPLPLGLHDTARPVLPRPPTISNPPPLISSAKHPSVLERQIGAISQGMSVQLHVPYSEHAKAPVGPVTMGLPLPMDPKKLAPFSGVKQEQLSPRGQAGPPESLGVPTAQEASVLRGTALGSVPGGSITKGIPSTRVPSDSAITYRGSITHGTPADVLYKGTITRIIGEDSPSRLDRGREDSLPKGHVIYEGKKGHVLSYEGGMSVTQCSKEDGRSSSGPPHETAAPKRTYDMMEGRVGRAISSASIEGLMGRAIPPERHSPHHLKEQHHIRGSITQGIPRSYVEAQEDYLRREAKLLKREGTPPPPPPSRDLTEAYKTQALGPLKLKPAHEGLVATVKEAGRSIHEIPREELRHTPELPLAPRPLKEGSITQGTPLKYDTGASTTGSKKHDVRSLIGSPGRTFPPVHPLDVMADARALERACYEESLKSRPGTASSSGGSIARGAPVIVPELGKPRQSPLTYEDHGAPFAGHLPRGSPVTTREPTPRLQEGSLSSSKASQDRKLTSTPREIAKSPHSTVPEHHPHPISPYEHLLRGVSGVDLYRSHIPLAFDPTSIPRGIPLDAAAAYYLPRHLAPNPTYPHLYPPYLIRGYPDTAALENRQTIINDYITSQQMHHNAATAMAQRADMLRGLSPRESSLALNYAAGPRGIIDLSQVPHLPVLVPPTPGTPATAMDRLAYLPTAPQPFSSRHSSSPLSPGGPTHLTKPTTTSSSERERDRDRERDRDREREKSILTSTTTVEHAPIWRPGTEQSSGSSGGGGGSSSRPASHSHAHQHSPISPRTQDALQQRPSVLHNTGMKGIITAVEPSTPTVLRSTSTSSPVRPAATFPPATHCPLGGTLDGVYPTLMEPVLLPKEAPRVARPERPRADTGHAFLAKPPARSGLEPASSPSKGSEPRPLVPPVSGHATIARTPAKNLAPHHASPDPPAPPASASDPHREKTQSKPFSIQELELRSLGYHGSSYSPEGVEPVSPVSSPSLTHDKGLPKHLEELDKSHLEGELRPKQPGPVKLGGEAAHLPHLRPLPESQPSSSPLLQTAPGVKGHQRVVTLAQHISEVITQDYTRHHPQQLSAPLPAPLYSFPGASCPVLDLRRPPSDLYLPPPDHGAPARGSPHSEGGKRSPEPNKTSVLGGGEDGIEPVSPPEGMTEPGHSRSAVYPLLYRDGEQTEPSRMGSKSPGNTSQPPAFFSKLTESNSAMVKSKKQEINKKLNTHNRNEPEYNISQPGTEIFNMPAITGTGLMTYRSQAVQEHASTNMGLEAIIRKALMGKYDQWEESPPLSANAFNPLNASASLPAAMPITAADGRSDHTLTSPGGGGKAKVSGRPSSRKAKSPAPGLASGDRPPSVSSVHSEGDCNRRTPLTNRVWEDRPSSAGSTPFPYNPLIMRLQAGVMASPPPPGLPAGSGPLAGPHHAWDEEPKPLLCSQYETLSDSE
Experiment: Inhibition of C-terminal His-tagged recombinant human HDAC3 (1 to 428 residues)/N-terminal GST-tagged recombinant human NCoR2 (395 to 489 residues) co-expressed in baculovirus infected Sf9 cells using Boc-Lys(acetyl)-AMC as fluorogenic substrate measured after 1 hr by flourescence plate reader method
endpoint.name: IC50

{"smiles.code": "O=C(CCCSC[C@H](NC(=O)c1ccccc1)C(=O)Nc1ccccc1)NO", "val": "126 nM"}
{"smiles.code": "O=C(CCCSC[C@H](NC(=O)OCc1ccccc1)C(=O)Nc1cccc2ccccc12)NO", "val": "69.3 nM"}
{"smiles.code": "O=C(CCCSC[C@H](NC(=O)OCc1ccccc1)C(=O)Nc1ccccc1)NO", "val": "108 nM"}

Origin of the recorded values: ChEMBL document CHEMBL5055644
